The entries below come with measured PBM binding z-score values attached.
Test system: THRa homodimer (NR concentration 90 nM)
Experiment: PBM binding z-score (relative to random genomic background probes); higher = stronger binding; sequences stand for … in GC…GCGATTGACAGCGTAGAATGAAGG

# entry_sequence, PBM binding z-score
data = [
    ("TCGAGTAGGTTAAGGGCATTCAGAATGGCGTCGA", 0.794),
    ("ATCTCTAGGTAAAGTTCAGTCAAAGATCGATAGA", 0.288),
    ("AGAATGAGGTTACCAAAGACCAGGGAAACGCTTG", 0.659),
    ("TTTAGTTGGTCACGGAGGTCACACACGACGGGTA", 3.15),
    ("GCTATTAGTTGAAAGGGCAGCCGAATGATTCTCG", -0.775),
    ("CATACAGGGTCAGCTAGGCCAAAGTAGGGACGGC", 0.87),
]

====

Tested on: PPARg:RXRa 30nM:10nM, anti-RXR (NR concentration 30 nM, RXRa partner concentration 10 nM)
Experiment: PBM binding z-score (relative to random genomic background probes); higher = stronger binding; sequences stand for … in GC…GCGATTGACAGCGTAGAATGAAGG
Please note: Fulfilled applies when PBM binding z-score is 2 or greater, and Not fulfilled applies otherwise.

# entry_sequence, class
data = [
    ("TAGCCTAGGTCATTGGCCCAGTATAGTACGCATC", "Not fulfilled"),
    ("TCGGACAGGTGAAGGTAACTCAGGTACGCAGTCG", "Fulfilled"),
    ("CAAACTAGGTCAAGAGGTCAAGGTCCGCTTCCCG", "Fulfilled"),
    ("CCTACTGGGCCACGAGAGGTCATTGATTCAGTGA", "Not fulfilled"),
    ("TTACCAAGGTGAAGGTCGTTGAACCCTCTGTAGA", "Fulfilled"),
    ("CGTCCAAGGACAAAGGTCAGTGAAGAGATGACGG", "Fulfilled"),
    ("CCTTACGGGTCAAGGATATAGCACGGGTGGTACG", "Not fulfilled"),
    ("TAGCGTAGGTCATTGGGCCAGTATAGTACGCATC", "Not fulfilled"),
    ("AGATGTAGGTTACATCCGGGTCATTCAGGCTATG", "Not fulfilled"),
    ("CCTTACGGGTCAAGGTGATAGCACGGGTGGTACG", "Not fulfilled"),
    ("CCAGACAGGTCAAAGGTAACTCAGTCTGGTACGC", "Fulfilled"),
    ("ATCGAAAGGTCGAAGCTGAGTATACCCACCCGAA", "Not fulfilled"),
]

====

The entries below come with measured PBM binding z-score values attached.
Tested on: PPARg:RXRa (NR concentration 180 nM, RXRa partner concentration 90 nM)
Test: PBM binding z-score (relative to random genomic background probes); higher = stronger binding; sequences stand for … in GC…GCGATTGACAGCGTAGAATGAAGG

# entry_sequence, PBM binding z-score
rows = [
    ("TATACAGGGTCAAAGGCCAGGGTACGAATGTCGA", 8.53),
    ("CCTCGGAGGACAACAGGAGGTCAGTGCTGCCAGA", 0.333),
    ("CAAACTAGGTCACCAAAGGTCAAAGTCGAATGAC", 10.1),
    ("AATACAGGGTCATCGTAGGCGAGAGTACGCACAG", 6.58),
    ("AGTCAAAGTTCAGGACGTGGTAACGTAAAGCACG", 4.28),
    ("CGTCAAAGTACAAGGTAACGTAACAGAAAGCAGC", 0.969),
    ("CCTCGGAGGACAGAAGGTCAGACCTGTCCGCTTT", 0.19),
    ("TCATATAGGTAAATGCTAGGTGAAAGCCCGATCT", 0.799),
    ("CCGAGTCGGTTATGGGGCATTCAGGCAACGGTGA", 0.463),
    ("ACTGACAGGTGATGAAGGTAACTCAGGCTATCAT", 0.472),
    ("ACTATTAGTTGACTTACGGCAACCGATACGACGC", 1.09),
    ("ACAGACAGGTGAGTGAAGGTAACTCAGCTGGACG", 0.762),
    ("CCTTACGGGTCAATCCAGGTTATAGCATCGGAGT", 3.53),
    ("GCCAGCAGGCCATTTGGGTCACTCAATGACGGGC", 0.451),
    ("TGAATGAGGTTATAAGATTAGGGAACGTTGCAAA", 1.15),
    ("CCTACTGCGCCATCAGGTCATTGATATCAACGTT", 0.376),
    ("GCTGCTAGGTCAACTGATAGTCAGCTAAAGCTCG", 2.91),
    ("TTACCAAGGTGAAAGGGCGTTGATGCACGCCTTG", 5.55),
    ("TAGCCTAGGTCATTGGGGCAGTATAGTACGCATC", 4.24),
    ("ACAGACAGTTGATGAAGGTAACTCAGGCTATCAT", 0.507),
    ("CCTCGGAGGACAACAGGAGGTCACAGCTGCCAGA", 1.76),
    ("GGAACGCGGGCAAAGTTGATAGCATCTGTCGACG", 2.51),
    ("TCATATAGGTAATACAGGTGAACGTCGGCATCTA", 1.72),
    ("CGTCCAAGGTCAGAGGAGGTCAGTGAAGACAGAT", 3.53),
    ("TCATATAGGTATTACAGGTGAAAGTCGGCATCTA", 1.1),
    ("CCTTACGGGTCAATGTTATAGCACGGGTGGTACG", 3),
]

====

System: LXRb:RXRa (NR concentration 270 nM, RXRa partner concentration 90 nM)
Assay: PBM binding z-score (relative to random genomic background probes); higher = stronger binding; sequences stand for … in GC…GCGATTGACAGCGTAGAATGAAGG
The entries below come with measured PBM binding z-score values attached.

# entry_sequence, PBM binding z-score
records = [
    ("CGAACGAGGGCATGAGTTGATACCAAATGCCGAT", 0.374),
    ("CGGCAAAGTTCAACTAAGGTAACGTAAAGCACGC", 3.99),
    ("CCTACTGGGCCAAAAAGGTCATCGATGCCGATAA", 4.33),
    ("AGAATGAGGTTATACGTAGATCAGGGAAGAAAGT", 1.7),
    ("GCATATATGTAATACAAGGTGAAAGTCCGATTGT", 0.457),
    ("TAGGCTAGGTCATGGGCCAGTATACCACGCGAAC", 2.18),
    ("CAAACTAGGTCACCGGAAGGTCAAAGACCGCATG", 4.91),
    ("ACAGACAGGTGCGTGAAGGTAACTCAGCTGGACG", -0.869),
    ("AGAACGAGGGCAATGAGTTGAAAGCACGGGTGGC", -0.0192),
    ("GGAACGAGGGCGAGTTGATAGCAGAGTTTGATGG", -0.523),
    ("GCGAGTTGGTCAGTAAAAGGTCACACACCGGTCG", 4.07),
    ("CCCAGTTGGTCAGGAGGTCACACACCGGATATGA", 3.58),
    ("TAGCCTAGGTCAGATCGGGCCAGTGTACGCTATA", 0.525),
    ("TCACCAAGGTGAGCTGAGGTCGTTGATCCAACTC", 0.743),
    ("CCTTACGGATCACGAGGTTATAGCACGACGAGCG", 1.11),
    ("TCTATTTGGTCACGGAGGTCACACACGACGGGTA", 3.88),
    ("ACTATTAGTTGAGGCGAGGGCAACCGATAGGTTG", 0.0711),
    ("CCGACTGGGGCAAGGGTACCATAACGCACAGCCA", -0.192),
    ("ACTCGGAGGACAAAGGCCAGAGCTACGCCAGTGA", -1.08),
    ("GGTTGTAGATCAAGGTTAAGAAAGACTAAGCTAA", 1.19),
    ("ATCTCTAGGTAAGACTCAGTTTAGTGAAGAACGC", 0.362),
    ("ATATGTCGGTTATCGGGTCATTCAGTTTGCGCAT", 2.54),
    ("TAGCCTAGGTCAGATCAGGCCAGTATACGCTATA", 0.898),
    ("TCATATGGGTAAATGCTAGGTGAAAGTCCGATCT", 0.31),
    ("TCTAGTTGGTCAAAGGTCAGACACTCGAAATGCG", 4.41),
    ("TCTATTAGTTGGAGGGCAACCGACGAGTCCGTTT", 0.855),
]
